The measured values listed here are drawn from patent US20180162944A1.

measurement.target: T1, recombinant human PD-L1 (human, UniProt Q9NZQ7 19-238)
T1 construct: the whole natural entry is named
T1 sequence (Q9NZQ7 19-238 limits assumed): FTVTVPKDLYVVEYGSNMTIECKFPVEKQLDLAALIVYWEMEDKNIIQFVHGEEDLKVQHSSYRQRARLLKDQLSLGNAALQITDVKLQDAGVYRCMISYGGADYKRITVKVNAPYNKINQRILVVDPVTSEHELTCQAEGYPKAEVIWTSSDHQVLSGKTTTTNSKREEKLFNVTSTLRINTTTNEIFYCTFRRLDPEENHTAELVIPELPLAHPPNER
protocol.text: SPR (ProteOn XPR36), antibody captured on Protein A, human PD-L1 as analyte, 1:1 Langmuir fit
Param label: returns satisfied when koff < 0.0001 s⁻¹, returns not satisfied otherwise, including exact equality.

Before answering, review these 4 worked examples.
binder	category.label
2.74.15.hAb6 (antibody, V domains shown, Humanized antibody with a human constant region of IgG4 isotype) VH: QVQLQESGPGLVKPSETLSLTCTVTGYSITSGYIWHWIRQPAGKGLEWIGYIHYSGTTDFNPSLESRVTISVDTSKNQFSLKLSSVTAADTAVYYCAREGRSYGGFAYWGQGTLVTVSS VL: DIQMTQSPSSLSASVGDRVTITCKASQSVSNGVAWYQQKPGKVPKLLIYYASNRFTGVPSRFSGSGSGTDFTLTISSLQPEDVATYYCQQDYSSPFTFGQGTKLEIK	not satisfied
2.74.15.hAb8 (antibody, V domains shown, Humanized antibody with a human constant region of IgG4 isotype) VH: QVQLQESGPGLVKPSETLSLTCTVSGYSITSGYIWHWIRQPPGKGLEWIGYIHYSGTTDFNPSLESRVTISVDTSKNQFSLKLSSVTAADTAVYYCAREGRSYGGFAYWGQGTLVTVSS VL: DIQMTQSPSSLSASVGDRVTITCKASQSVSNGVAWYQQKPGKVPKLLIYYASNRFTGVPSRFSGSGSGTDFTLTISSLQPEDVATYYCQQDYSSPFTFGQGTKLEIK	satisfied
2.74.15.hAb5 (antibody, V domains shown, Humanized antibody with a human constant region of IgG4 isotype) VH: QVQLQESGPGLVKPSETLSLTCTVTGYSITSGYIWHWIRQPAGKGLEWIGYIHYSGTTDFNPSLESRVTISVDTSKNQFSLKLSSVTAADTAVYYCAREGRSYGGFAYWGQGTLVTVSS VL: DIQLTQSPSFLSASVGDRVTITCKASQSVSNGVAWYQQKPGKAPKLLIYYASNRFTGVPSRFSGSGSGTEFTLTISSLQPEDFATYYCQQDYSSPFTFGQGTKLEIK	not satisfied
2.74.15.hAb7 (antibody, V domains shown, Humanized antibody with a human constant region of IgG4 isotype) VH: QVQLQESGPGLVKPSETLSLTCTVSGYSITSGYIWHWIRQPPGKGLEWIGYIHYSGTTDFNPSLESRVTISVDTSKNQFSLKLSSVTAADTAVYYCAREGRSYGGFAYWGQGTLVTVSS VL: DIQLTQSPSFLSASVGDRVTITCKASQSVSNGVAWYQQKPGKAPKLLIYYASNRFTGVPSRFSGSGSGTEFTLTISSLQPEDFATYYCQQDYSSPFTFGQGTKLEIK	not satisfied

Let us examine a further case.
Request: Confirm or reject: koff of 2.74.15.hAb4 (antibody, V domains shown, Humanized antibody with a human constant region of IgG4 isotype) VH: QVQLQESGPGLVKPSETLSLTCTVSGYSITSGYIWHWIRQPPGKGLEWIGYIHYSGTTDFNPSLESRVTISVDTSKNQFSLKLSSVTAADTAVYYCAREGRSYGGFAYWGQGTLVTVSA VL: SFVMTQSPSSLSASVGDRVTITCKASQSVSNGVAWYQQKPGKVPKLLIYYASNRFTGVPSRFSGSGSGTDFTLTISSLQPEDVATYYCQQDYSSPFTFGSGTELEIK lies strictly below 0.0001 s⁻¹
Result: satisfied
